Below, each of the binders is paired with its reported optical density value.
# tgt: human Fc (human)
# measurement.description: ELISA, negative control
Just the number in OD, nothing appended.

binder	optical density / OD
366_C05 (antibody, V domains shown) VH: EVQLLESGGGLVQPGGSLRLSCAASGFTFDDYGMHWVRQAPGKGLEWVSSINYNGGYTGYADSVKGRFTISRDNSKNTLYLQMNSLRAEDTAVYYCARAATWHDTHLDYWGQGTLVTVSS VL: DIQMTQSPSSLSASVGDRVTITCRASQSIISYLNWYQQKPGKAPKLVIYAATSRASGVPSRFSGSGSGTDFTLTISSLQPEDFATYYCQQSYDSPLTFGGGTKVEIK	0.269
366_C03 (antibody, V domains shown) VH: EVQLLESGGGLVQPGGSLRLSCAASGFTFDSYGMNWVRQAPGKGLEWVSNINYNGGYTGYADSVKGRFTISRDNSKNTLYLQMNSLRAEDTAVYYCARSATWHDTHLDYWGQGTLVTVSS VL: DIQMTQSPSSLSASVGDRVTITCRASQSILSYLNWYQQKPGKAPKLVIYAATSRASGVPSRFSGSGSGTDFTLTISSLQPEDFATYYCQQSYSNPLTFGGGTKVEIK	0.274
374_B07 (antibody, V domains shown) VH: EVQLLESGGGLVQPGGSLRLSCAASGFTFSSYGMHWVRQAPGKGLEWVSSINYNGGYKSYADSVKGRFTISRDNSKNTLYLQMNSLRAEDTAVYYCARAATWHDTHLDYWGQGTLVTVSS VL: DIQMTQSPSSLSASVGDRVTITCRASQSIISYLNWYQQKPGKAPKLLIYAATSLASGVPSRFSGSGSGTDFTLTISSLQPEDFATYYCQQSYESPLTFGGGTKVEIK	0.25
373_A03 (antibody, V domains shown) VH: EVQLLESGGGLVQPGGSLRLSCAASGFTFSDYSMNWVRQAPGKGLEWVANINYNGGYTGYADSVKGRFTISRDNSKNTLYLQMNSLRAEDTAVYYCARGANWHDTALDYWGQGTLVTVSS VL: DIQMTQSPSSLSASVGDRVTITCRASQSILSYLNWYQQKPGKAPKLVIYAATSRASGVPSRFSGSGSGTDFTLTISSLQPEDFATYYCQQSYDNPLTFGGGTKVEIK	0.189

# ---- query binder ----
Name the recorded optical density for 371_B02 (antibody, V domains shown) VH: EVQLLESGGGLVQPGGSLRLSCAASGFTFDSYGMNWVRQAPGKGLEWVSNINYNGGYTSYADSVKGRFTISRDNSKNTLYLQMNSLRAEDTAVYYCARAATWHDTHLDYWGQGTLVTVSS VL: DIQMTQSPSSLSASVGDRVTITCRASQSILTYVNWYQQKPGKAPKLVIYAATSLASGVPSRFSGSGSGTDFTLTISSLQPEDFATYYCQQSYNNPLTFGGGTKVEIK .
0.449
